- assay system: human GnRH receptor (Homo sapiens)
- Construct: membrane preparation
- Sequence (P30968 whole entry): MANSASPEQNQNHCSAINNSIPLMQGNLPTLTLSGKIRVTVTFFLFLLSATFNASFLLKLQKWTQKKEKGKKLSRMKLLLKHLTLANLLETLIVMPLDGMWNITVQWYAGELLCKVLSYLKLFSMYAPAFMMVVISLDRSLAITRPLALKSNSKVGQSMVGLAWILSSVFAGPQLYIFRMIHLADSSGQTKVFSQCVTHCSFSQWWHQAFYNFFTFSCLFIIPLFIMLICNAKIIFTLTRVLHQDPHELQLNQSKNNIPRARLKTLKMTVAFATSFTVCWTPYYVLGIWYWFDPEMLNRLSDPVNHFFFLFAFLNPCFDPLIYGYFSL
- protocol description: GnRH radioligand binding assay
- experimental setup: 125I-LHRH-D-Trp6 radioligand; COS-1 cell membranes containing human GnRH receptors; 2 h at 4 C
pIC50: −log10 of the molar value.
metric: pIC50

{"molecule": "COc1ccc(CN2C[C@@H]3C[C@@H](c4ccc(OC)c5ccccc45)N4C(=O)N(CCN5CCOCC5)C(=O)[C@@]34C2)cc1O (relative stereo) [AF21477]", "pIC50": "~6.21"}
{"molecule": "COc1ccc(CN2C[C@H]3C[C@H](c4ccc(N)c5ccccc45)N4C(=O)N(CCN5CCOCC5)C(=O)[C@]34C2)cc1O (relative stereo) [Compound 17]", "pIC50": "~6.49"}

# returns recorded pIC50 (system: human GnRH receptor (Homo sapiens)) for COc1cc(Br)c(CN2C[C@@H]3C[C@@H](c4ccc(N(C)C)c5ccccc45)N4C(=O)N(CCN5CCOCC5)C(=O)[C@@]34C2)cc1O (relative stereo) [AF21813]
~7.10
